Test system: L1210 leukemia ip in BDF1 mice, survival T/C
Experiment: NCI In Vivo Anticancer Drug Screen. Data for tumor model L1210 Leukemia (intraperitoneal) in B6D2F1 (BDF1) mice
Conditions: endpoint: mean survival time; dose: 75.0 mg/kg/injection; schedule: Q01DX001 (ip); vehicle: saline; higher = longer survival
Toxic doses and inconclusive results are not listed.
Reported T/C is given for each of the following molecules.
quantity_name: T/C

> print(dat)
                                   molecule       assay.value
1           CCC1(C2=CCCCC2)C(=O)NC(=S)NC1=O  102 % of control
2    Cc1cc2c(cc1C)N(C(=O)CN1CCCCC1)CC(=O)N2   93 % of control
3  CC1=CCC2C(C)(C)CCCC2(C)C1CO (stereo not drawn)   98 % of control
4                    N#Cc1c(CBr)ccc2ccccc12   92 % of control
5  O=C1C[C@@H](c2ccc(O)cc2)[C@@]2(O1)C(=O)O[C@H]([C@@H](O)CO)[C@@H]2O   98 % of control
6   O=C(O)c1ccc([N+](=O)[O-])c(P(=O)(O)O)c1   96 % of control
7  CCN(CC)CCCC(C)Nc1cc(N)nc2nc(-c3cc(OC)c(OC)c(OC)c3)cnc12 (stereo not drawn) (tested in a mixture with another compound)   87 % of control
8  O=[N+]([O-])c1ccc([As](=O)(O)c2ccc([N+](=O)[O-])cc2)cc1   95 % of control

----------
Test system: L1210 leukemia ip in BDF1 mice, survival T/C
Test: NCI In Vivo Anticancer Drug Screen. Data for tumor model L1210 Leukemia (intraperitoneal) in B6D2F1 (BDF1) mice
Details: endpoint: mean survival time; dose: 50.0 mg/kg/injection; schedule: Q04DX003 (ip); vehicle: Klucel (hydroxypropylcellulose) (HPC); higher = longer survival
Inconclusive results and toxic doses are left out.
Reported T/C is given for each of the following molecules.
quantity_name: T/C

> print(dat)
                                    molecule       assay.value
 1  CC(=O)[O][Hg][CH]1CCC2OC1CC[CH]2[Hg][O]C(C)=O (stereo not given)   98 % of control
 2              CN(C)C(=S)SCCOc1ccc(Cl)cc1Cl   98 % of control
 3        COc1ccc([N+](=O)[O-])cc1CN(C)C(C)C   97 % of control
 4           CN(NC(=O)c1ccccc1)C(=O)c1ccccc1  103 % of control
 5                                 NC(=O)CCl  100 % of control
 6      O=C1CN(O)C(c2ccccc2)=c2cc(Cl)ccc2=N1  108 % of control
 7  N#CCCNC(Cc1ccc(O)cc1)C(=O)O (stereo not given)  104 % of control
 8                      BrCc1ccc(CBr)c(Br)c1  104 % of control
 9   NC1CCC(CC2CCCCC2)CC1 (stereo not given)  100 % of control
10                      COC(=O)c1cccc(OC)c1I   98 % of control

----------
Reported T/C is given for each of the following compounds.
Tested on: L1210 leukemia ip in BDF1 mice, survival T/C
Assay: NCI In Vivo Anticancer Drug Screen. Data for tumor model L1210 Leukemia (intraperitoneal) in B6D2F1 (BDF1) mice
Settings: endpoint: mean survival time; dose: 200.0 mg/kg/injection; schedule: Q04DX003 (ip); vehicle: saline with Tween-80; higher = longer survival
Inconclusive results and toxic doses are left out. Peptide text beside a SMILES is read from it. * marks the point of attachment. Cbz = O=C(OCc1ccccc1)*; OtBu = CC(C)(C)O*

compound	T/C
CCCC(C)C(C(=O)O)c1ccccc1 (configuration not stated)	100 % of control
Cc1c(F)cc(I)cc1[N+](=O)[O-]	100 % of control
CC(C)(C)OC(=O)N/N=C/c1ccc2c(c1)CCC2	100 % of control
CN(C)N=Nc1ccc(C(F)(F)F)cc1	101 % of control
CCCCCCCCCCCCCCCCCCc1ccc(O)cc1O	92 % of control
c1ccc2c(CN3CCCCC3)c[nH]c2c1	88 % of control
CN1CSCSC1	100 % of control
O=C(O)c1cc(-c2ccc(Cl)cc2)nc2c(-c3ccccc3)cccc12	95 % of control
C1C2C3OC3C1C1C2C2C3CC(C4OC34)C12 (configuration not stated)	101 % of control
C/C=C/CCCCCCCC(=O)OCCCC	97 % of control
CN(C)CC(=O)Nc1cc(Cl)ccc1Oc1ccc(Cl)cc1	100 % of control
COC(=O)C(CCC(=O)OC(C)(C)C)NC(=O)C(NC(=O)OCc1ccccc1)C(C)C (stereo not drawn) (Cbz-Val-Glu(OtBu)-OMe; configuration not given here)	95 % of control
O=C1OC(=O)C2C3C=CC(C3)C12 (configuration not stated)	98 % of control
CN=C(N)C(N)=NC	102 % of control
Cc1cc(-n2c(C)ccc2C)no1	90 % of control
O=c1c2ccccc2c(=O)c2c1ccc1[nH]c3ccccc3n(-c3ccccc3)c12	89 % of control
CC(=O)NC(C)C#N (configuration not stated)	95 % of control
BrC(Br)(Br)c1ccc2ccccc2n1	93 % of control
CCOC(=O)c1cc2ccccc2c2ccccc12	95 % of control
C/C(=N/N(C)C)c1ccccn1	95 % of control
Cc1cccc(CC23CC4CC(CC(C4)C2)C3)c1	100 % of control
Cc1c(Cl)cccc1NC(=O)OC/C=C/c1ccccc1	93 % of control
O=c1oc2ccccc2c(O)c1C(C/C(=N/O)c1ccccc1)c1ccccc1 (configuration not stated)	91 % of control
COc1ccc(OCC(=O)O)cc1	107 % of control
CN(C)C(=S)OCC(C)(C)C	100 % of control
CS/C(N)=N\C(=O)N(C)C	98 % of control
CCC(C(O)c1ccc(F)cc1)C(O)(C(F)(F)F)C(F)(F)F (configuration not stated)	100 % of control
